Property: gamma-GTP; scope: individual compounds
- Species on record: Rattus norvegicus
- method summary: Open TG-GATES - Regimen: Daily Repeat
- Assay type: toxicity, organism-based, Sprague-Dawley
- Set-up: regimen Daily Repeat, gender Male, age 6 weeks
- experimental conditions: in vivo, po, 100 mg/kg, 72 h, tissue Plasma, route gavage, dose level Low, time 3 day
Numbers only; they are read as IU/L.

For orientation, consider the following solved cases.
• CCN1CCCC1CNC(=O)c1cc(S(N)(=O)=O)ccc1OC (centres undefined) [SULPIRIDE] = 1
• O=C(N[C@H](CO)[C@H](O)c1ccc([N+](=O)[O-])cc1)C(Cl)Cl = 0.8
• O=C(O)c1cccnc1 = 1.2

Now for another entry.
Exercise: Entry CC(C)(S)[C@@H](N)C(=O)O has what gamma-GTP?
Key: 1.2

====

- Species: Rattus norvegicus
- method summary: Open TG-GATES - Regimen: Daily Repeat
- Format: toxicity, organism-based, Sprague-Dawley
- Design: regimen Daily Repeat, gender Male, age 6 weeks
- experimental conditions: in vivo, po, 300 mg/kg, […], tissue Blood, route gavage, dose level Middle, time 7 day
Reported Neu by item:
Your answer is read as %, so omit the unit and give the number.

• CCN1CCCC1CNC(=O)c1cc(S(N)(=O)=O)ccc1OC (centres undefined) [SULPIRIDE] = 14.4
• O=C(O)c1cccnc1 = 19.2
• CC(C)(S)[C@@H](N)C(=O)O = 18.8

Please find the next compound below.
Exercise: What value of Neu has been recorded for this entry: O=C(N[C@H](CO)[C@H](O)c1ccc([N+](=O)[O-])cc1)C(Cl)Cl
Key: 17

====

- Species on record: Rattus norvegicus
- method summary: Open TG-GATES - Regimen: Daily Repeat
- Assay type: toxicity, organism-based, Sprague-Dawley
- Parameters: regimen Daily Repeat, gender Male, age 6 weeks
- experimental conditions: in vivo, po, 100 mg/kg, […], tissue Blood, route gavage, dose level Low, time 14 day
measured endpoint: Fbg

Take a look at these entries with their results.
* CC(C)(S)[C@@H](N)C(=O)O | 300.8 mg/dL
* O=C(N[C@H](CO)[C@H](O)c1ccc([N+](=O)[O-])cc1)C(Cl)Cl | 297.8 mg/dL
* O=C(O)c1cccnc1 | 330.8 mg/dL

Shift focus to the following entry.
Exercise: Give its Fbg value. Item: CCN1CCCC1CNC(=O)c1cc(S(N)(=O)=O)ccc1OC (centres undefined) [SULPIRIDE]
Key: 286 mg/dL

====

- Species: Rattus norvegicus
- method summary: Open TG-GATES - Regimen: Single
- Type: toxicity, organism-based, Sprague-Dawley
- Parameters: regimen Single, gender Male, age 6 weeks
- experimental conditions: in vivo, po, 0 mg/kg, 9 h, tissue Plasma, route gavage, dose level Control
Grouping key: LDH. Bins: range A = under 70 IU/L, range B = from 70 IU/L up to 100 IU/L, range C = 100 IU/L and over

- CC(=O)Oc1cc(C(C)C)c(OCCN(C)C)cc1C [MOXISYLYTE]: range C
- CN1C(=O)OC(C)(C)C1=O [TRIMETHADIONE]: range B
- Nc1nc(N)c2nc(-c3ccccc3)c(N)nc2n1: range A

Exercise: Which LDH band matches O=C(N[C@H](CO)[C@H](O)c1ccc([N+](=O)[O-])cc1)C(Cl)Cl [CHLORAMPHENICOL] ?
Key: range B

Exercise: Queued: C[C@]12CCC(=O)C=C1CC[C@@H]1[C@@H]2CC[C@@]2(C)[C@H]1CC[C@]2(C)O [METHYLTESTOSTERONE]
Key: range A

Exercise: Next record, please: CCN1CCCC1CNC(=O)c1cc(S(N)(=O)=O)ccc1OC (stereo not given) [SULPIRIDE]
Key: range C

Exercise: What about CC(C)C(=O)Nc1ccc([N+](=O)[O-])c(C(F)(F)F)c1 [FLUTAMIDE] ?
Key: range C

Exercise: Proceed to CCSCC[C@H](N)C(=O)O [ETHIONINE]
Key: range C

Exercise: Please give the result for CC(=N)S [THIOACETAMIDE] too.
Key: range B

The reported numbers originate from ChEMBL document CHEMBL3885861.
